Assay: CMR value (relative to BAY K 8644)
Format: ADME
Value type: CMR

Take a look at these entries with their results.
>>> reported_value("COC(=O)c1c(C)[nH]c(C)c1C(=O)c1ccc(C)cc1C")
8.01
>>> reported_value("COC(=O)c1c(C)[nH]c(C)c1C(=O)c1ccccc1Cl")
7.58
>>> reported_value("COC(=O)c1c(C)[nH]c(C)c1C(=O)c1ccccc1Cc1ccccc1")
10.06
>>> reported_value("COC(=O)c1c(C)[nH]c(C)c1C(=O)c1ccccc1Cc1ccc([N+](=O)[O-])cc1")
10.79
>>> reported_value("COC(=O)c1c(C)[nH]c(C)c1C(=O)c1ccccc1Oc1ccccc1")
9.75

(A) COC(=O)c1c(C)[nH]c(C)c1C(=O)c1ccccc1Cc1ccccc1[N+](=O)[O-]
(B) COC(=O)c1c(C)[nH]c(C)c1C(=O)c1ccccc1
Ask | // pick min by CMR: A , B // caller expects the label of the chosen entry
Reply | B
(B: 7.08, A: 10.78)
